- Method summary: Solubility of fosfluconazole derivatives in pharmaceutical solvents (Table 2)
- Type: physicochemical
- Assay context: aqueous with cosolvent or surfactant or cyclodextrin, thermodynamic from solid; H2O/Kleptose HPB (60/40), 25° C.
Experimental readout: solubility at 24 h

[[record]]
compound = "CCCCCCCCCC(=O)OCC(COP(=O)([O-])OC(Cn1cncn1)(Cn1cncn1)c1ccc(F)cc1F)OC(=O)CCCCCCCCC.[Na+] (stereo not drawn)"
value_observed = "> 10 mg/mL"


Please look at the items below and tell me solubility at 24 h for each one, in order.
1. CCCCCCCCCOCCOP(=O)([O-])OC(Cn1cncn1)(Cn1cncn1)c1ccc(F)cc1F.[Na+]
2. C[N+](C)(C)CCOP(=O)([O-])OC(Cn1cncn1)(Cn1cncn1)c1ccc(F)cc1F

Response given:
["> 10 mg/mL", "4.2 mg/mL"]

---

- Method summary: Chemical stability in pharmaceutical solvents (weight % remaining in solution, LCMS)
- Type: physicochemical
- Assay context: H2O/Kleptose HPB (60/40), 7 days
Experimental readout: weight percentage that remained in solution (% w/w)
Answers are plain numbers, in % w/w.

Please state weight percentage that remained in solution for every molecule in the list that follows.
1. C[N+](C)(C)CCOP(=O)([O-])OC(Cn1cncn1)(Cn1cncn1)c1ccc(F)cc1F
2. CCCCCCCCCOCCOP(=O)([O-])OC(Cn1cncn1)(Cn1cncn1)c1ccc(F)cc1F.[Na+]
3. CCCCCCCCCC(=O)OCC(COP(=O)([O-])OC(Cn1cncn1)(Cn1cncn1)c1ccc(F)cc1F)OC(=O)CCCCCCCCC.[Na+] (centres unmarked)
4. CCCCCCCCCOP(=O)([O-])OC(Cn1cncn1)(Cn1cncn1)c1ccc(F)cc1F.[Na+]
5. CCCCCCCCCC(=O)OCCOP(=O)([O-])OC(Cn1cncn1)(Cn1cncn1)c1ccc(F)cc1F.[Na+]

Response given:
[98.6, 95.0, 94.2, 99.3, 97.7]

---

Answer each item with its documented weight percentage that remained in solution.
- Method summary: Chemical stability in pharmaceutical solvents (weight % remaining in solution, LCMS)
- Type: physicochemical
- Assay context: H2O (pH = 10), 1 day
Answers are plain numbers, in % w/w.

[[record]]
molecule = "C[N+](C)(C)CCOP(=O)([O-])OC(Cn1cncn1)(Cn1cncn1)c1ccc(F)cc1F [Example 1]"
value_observed = 100.0


Report weight percentage that remained in solution for every entry below.
1. CCCCCCCCCOP(=O)([O-])OC(Cn1cncn1)(Cn1cncn1)c1ccc(F)cc1F.[Na+] [Example 14]
2. CCCCCCCCCOCCOP(=O)([O-])OC(Cn1cncn1)(Cn1cncn1)c1ccc(F)cc1F.[Na+] [Example 3]
3. CCCCCCCCCC(=O)OCCOP(=O)([O-])OC(Cn1cncn1)(Cn1cncn1)c1ccc(F)cc1F.[Na+] [Example 2]
4. CCCCCCCCCC(=O)OCC(COP(=O)([O-])OC(Cn1cncn1)(Cn1cncn1)c1ccc(F)cc1F)OC(=O)CCCCCCCCC.[Na+] (centres unmarked) [Example 4]

Response given:
1. 99.3
2. 94.8
3. 98.0
4. 44.8

---

Can you tell me weight percentage that remained in solution for the items I'm about to list?
- Method summary: Chemical stability in pharmaceutical solvents (weight % remaining in solution, LCMS)
- Assay type: physicochemical
- Assay context: PEG 400, 7 days
One number for each entry, in % w/w.

Examples from the recorded data:
[[record]]
molecule = "CCCCCCCCCC(=O)OCCOP(=O)([O-])OC(Cn1cncn1)(Cn1cncn1)c1ccc(F)cc1F.[Na+]"
value_observed = 98.0

[[record]]
molecule = "C[N+](C)(C)CCOP(=O)([O-])OC(Cn1cncn1)(Cn1cncn1)c1ccc(F)cc1F"
value_observed = 99.9

[[record]]
molecule = "CCCCCCCCCOCCOP(=O)([O-])OC(Cn1cncn1)(Cn1cncn1)c1ccc(F)cc1F.[Na+]"
value_observed = 95.0

[[record]]
molecule = "CCCCCCCCCC(=O)OCC(COP(=O)([O-])OC(Cn1cncn1)(Cn1cncn1)c1ccc(F)cc1F)OC(=O)CCCCCCCCC.[Na+] (centres unmarked)"
value_observed = 96.6


Now look at this one.
Challenge: Given "CCCCCCCCCOP(=O)([O-])OC(Cn1cncn1)(Cn1cncn1)c1ccc(F)cc1F.[Na+]" , respond with its weight percentage that remained in solution.
Response given: 99.4
